# ASSAYED SYSTEM: Muscarinic acetylcholine receptor M1 (Homo sapiens)
# ASSAY PROTOCOL: Displacement of [3H]-NMS from human muscarinic acetylcholine receptor M1 expressed in flpIn-CHO cell membranes after 5 hrs in presence of acetylcholine at EC20 by liquid scintillation counting
Reported pKb values for a set of compounds

{"columns": ["SMILES", "ASSAYED SYSTEM", "pKb"],
 "data": [
  ["O=C(O)c1ccc(Cn2cc(C(=O)N[C@H]3CCCC[C@@H]3O)c3ncccc32)cc1", "Muscarinic acetylcholine receptor M1 (Homo sapiens)", 4.63],
  ["CCN(CC)C(=O)c1cn(Cc2ccc(-c3cnn(C)c3)cc2)c2cccnc12", "Muscarinic acetylcholine receptor M1 (Homo sapiens)", 4.43],
  ["CCNC(=O)c1cn(Cc2ccc(-c3cnn(C)c3)cc2)c2cccnc12", "Muscarinic acetylcholine receptor M1 (Homo sapiens)", 4.61],
  ["Cn1cc(-c2ccc(Cn3ccc(C(=O)N[C@H]4CCCC[C@@H]4O)c3)cc2)cn1", "Muscarinic acetylcholine receptor M1 (Homo sapiens)", 4.19],
  ["CN(C(=O)c1cn(Cc2ccc(-c3cnn(C)c3)cc2)c2cccnc12)C1CCCCC1", "Muscarinic acetylcholine receptor M1 (Homo sapiens)", 4.91]
]}

* * *

# ASSAYED SYSTEM: Muscarinic acetylcholine receptor M1 (Homo sapiens, UniProt P11229)
# Sequence (P11229 whole entry): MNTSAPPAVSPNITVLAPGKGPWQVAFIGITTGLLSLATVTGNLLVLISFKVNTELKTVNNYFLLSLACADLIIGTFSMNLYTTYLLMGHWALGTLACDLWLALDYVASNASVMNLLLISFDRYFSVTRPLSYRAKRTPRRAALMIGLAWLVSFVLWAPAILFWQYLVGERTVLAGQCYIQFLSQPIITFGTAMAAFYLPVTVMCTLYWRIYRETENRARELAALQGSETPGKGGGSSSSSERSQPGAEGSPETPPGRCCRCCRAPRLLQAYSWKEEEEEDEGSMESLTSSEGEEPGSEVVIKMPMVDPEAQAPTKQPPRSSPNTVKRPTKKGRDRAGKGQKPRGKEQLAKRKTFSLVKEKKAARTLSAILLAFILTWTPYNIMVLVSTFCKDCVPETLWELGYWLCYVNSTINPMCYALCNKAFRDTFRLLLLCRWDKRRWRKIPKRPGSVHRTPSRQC
# ASSAY PROTOCOL: Allosteric agonist at human muscarinic acetylcholine receptor M1 expressed in CHO cells assessed as induction of calcium mobilization after 2.5 mins by Fluo-4AM-based FLIPR assay
# Type: functional, cell-based

{"columns": ["SMILES", "EC50, µM"],
 "data": [
  ["Cn1cc(-c2ccc(Cn3cc(C(=O)N[C@@H]4CCCC[C@H]4O)c4c(F)cc(F)cc43)cn2)cn1", 4.8]
]}

* * *

# ASSAYED SYSTEM: Muscarinic acetylcholine receptor M1 (Homo sapiens, UniProt P11229)
# ASSAY PROTOCOL: Positive allosteric modulation of human muscarinic acetylcholine receptor M1 expressed in CHO cells assessed as potentiation of acetylcholine-induced calcium mobilization preincubated for 2.5 mins followed by acetylcholine addition measured after 1 min by Fluo-4AM-based FLIPR assay
# Assay type: functional, cell-based
pEC50: −log10 of the molar value.

{"columns": ["SMILES", "pEC50"],
 "data": [
  ["Cn1cc(-c2ccc(Cn3cc(C(=O)N[C@@H]4CCCC[C@H]4O)c4c(F)cc(F)cc43)cn2)cn1", 6.68]
]}

* * *

# ASSAYED SYSTEM: UniProtKB P11229
# ASSAY PROTOCOL: Positive allosteric modulation of human muscarinic acetylcholine receptor M1 expressed in flpIn-CHO cells assessed as potentiation of acetylcholine-mediated IP1 accumulation at 10 uM measured after 1 hr by based HTRF assay relative to control
# Format: functional, cell-based
The source made the active and inactive calls. The calls are words filed in the database; no cut-off is given here.
Possible outcomes: yes (1) (active), no (0) (inactive)

{"columns": ["SMILES", "GROUP"],
 "data": [
  ["CN(C)C(=O)c1cn(Cc2ccc(-c3cnn(C)c3)cc2)c2cccnc12", "yes (1)"],
  ["Cn1cc(-c2ccc(Cn3cc(C(=O)Nc4ccccc4O)c4ncccc43)cc2)cn1", "no (0)"],
  ["Cn1cc(-c2ccc(Cn3cc(C(=O)N4CCCC4)c4ncccc43)cc2)cn1", "yes (1)"],
  ["Cn1cc(-c2ccc(Cn3nc(C(=O)N[C@H]4CCCC[C@@H]4O)c4ccccc43)cc2)cn1", "yes (1)"]
]}
